- Test system: THP-1 viability, CellTiter-Glo luminescence, 72 h
- test method notes: THP-1 cell cytotoxicity, dose response, cytotoxicity control for Salmonella PhoP regulon inhibitors, S. typhimurium screen hits (AID 2253)
measured attribute: EC50

Recorded EC50, per entry:
{"compound": "CC(C)(C)c1ccc(C(=O)NC(=S)NCc2cccnc2)cc1", "EC50": "46.5 µM"}
{"compound": "c1ccc2c(NC3=NCCS3)cccc2c1", "EC50": "31.8 µM"}
{"compound": "O=C(Nc1ccc2snnc2c1)Nc1cccc2ccccc12", "EC50": "33.7 µM"}
{"compound": "Clc1ccc(Cn2ncc3c(NCc4ccco4)ncnc32)c(Cl)c1", "EC50": "6.81 µM"}
{"compound": "COc1ccc(Nc2sc(C(=O)Nc3cccc(Cl)c3)c(N)c2C(=O)Nc2ccccc2OC)cc1", "EC50": "25.7 µM"}

Req: For O=C(c1[nH]ncc1-c1ccc(Cl)cc1)C1CO1 (configuration not stated) , what is its reported EC50?
Resp: 13.3 µM

Req: For Cc1ccccc1NC(=O)CCC(=O)N/N=C/c1cc([N+](=O)[O-])ccc1O , what is its reported EC50?
Resp: 19.5 µM

----------
- System: THP-1 viability, CellTiter-Glo luminescence, 72 h
- test method notes: THP-1 cell cytotoxicity, dose response, cytotoxicity control for Salmonella PhoP regulon inhibitors, S. typhimurium screen hits (AID 2253)
measured attribute: pEC50
Convention used: pEC50 is expressed as -log10 of the molar concentration.

{"molecule": "Cc1[nH]nc2c1C(c1cc(Br)cs1)C(C#N)=C(N)O2 (configuration not stated)", "reported measurement": 4.95}

Next molecule, please.
Req: For the record c1ccc2c(C3=NNC(=NC4CCCCC4)SC3)c[nH]c2c1 , what value of pEC50 is listed for THP-1 viability, CellTiter-Glo luminescence, 72 h?
Resp: 4.72

----------
The entries below are paired with their reported pEC50.
- Tested on: THP-1 viability, CellTiter-Glo luminescence, 72 h
- test method notes: THP-1 cell cytotoxicity, dose response, cytotoxicity control for Salmonella PhoP regulon inhibitors, S. typhimurium screen hits (AID 2253)
Convention used: pEC50 is expressed as -log10 of the molar concentration.

{"molecule": "Cc1ccc2cccnc2c1NC(=S)NC(=O)c1ccccc1", "measured on": "THP-1 viability, CellTiter-Glo luminescence, 72 h", "pEC50": 4.60}

Req: For CC[C@H]1OC(=O)C[C@@H](O)[C@H](C)[C@@H](O[C@@H]2O[C@H](C)C[C@H](N(C)C)[C@H]2O)[C@@H](CC=O)C[C@@H](C)C(=O)C=C[C@]2(C)O[C@H]2[C@@H]1C , what is its reported pEC50?
Resp: 4.92

Req: For Cc1ccc(-c2csc(NC(=O)C[n+]3cc(-c4ccc(C)cc4)n4c3CCC4)n2)cc1 , what is its reported pEC50?
Resp: 5.07

Req: For Cc1ccc(-n2sc3ccccc3c2=O)cc1S(=O)(=O)N1CCCCC1 , what is its reported pEC50?
Resp: 5.56

Req: For CN1CCN(C(c2ccc(Cl)cc2)c2cc(Cl)c3cccnc3c2O)CC1 (centres undefined) , what is its reported pEC50?
Resp: 5.78

Req: For COc1cc(C(=O)Oc2c(CN3CCOCC3)cc(Cl)c3cccnc23)cc(OC)c1OC , what is its reported pEC50?
Resp: 5.35

Req: For Cc1cc(C2=NNC(=NC3CC3)SC2)c(C)n1-c1ccccc1 , what is its reported pEC50?
Resp: 4.33

Req: For c1ccc(C2CNCc3c2ccc2ccccc32)cc1 (centres undefined) , what is its reported pEC50?
Resp: 4.96

Req: For N=C(N)SCc1cn(-c2ccccc2)nc1-c1ccc(Br)cc1 , what is its reported pEC50?
Resp: 5.32

Req: For ON=C1/C(=N\O)CC2(C/C1=N/O)OCCO2 , what is its reported pEC50?
Resp: 4.46

Req: For C/C(=N\Nc1nc2ccccc2[nH]1)c1ccc(Cl)s1 , what is its reported pEC50?
Resp: 4.49

Req: For COc1ccc(OCCSc2nnc3sc4ccccc4n23)cc1 , what is its reported pEC50?
Resp: 4.36

Req: For NC1=NC[C@H](c2ccccc2)N1CCCCC1CCCCC1 , what is its reported pEC50?
Resp: 5.30

Req: For C#CC(=O)N(c1cc(OC)ccc1OC)C(C(=O)NC1CCCC1)c1cccs1 (centres undefined) , what is its reported pEC50?
Resp: 5.85

Req: For Clc1c(OCCCn2ccnc2)ccc2ccccc12 , what is its reported pEC50?
Resp: 4.45

Req: For O=S(=O)(/N=C(/Nc1cccc2ccccc12)c1ccccc1)c1cccs1 , what is its reported pEC50?
Resp: 4.54

Req: For CCn1c(SCC(=O)Nc2ccc3c(c2)oc2ccccc23)nnc1-c1ccc(N)cc1 , what is its reported pEC50?
Resp: 4.52

Req: For O=[N+]([O-])c1cc(Cl)c(O)c2ncccc12 , what is its reported pEC50?
Resp: 4.82

----------
- Tested on: THP-1 viability, CellTiter-Glo luminescence, 72 h
- test method notes: THP-1 cell cytotoxicity, dose response, cytotoxicity control for Salmonella PhoP regulon inhibitors, S. typhimurium screen hits (AID 2253)
The entries below are paired with their reported EC50.

{"compound": "O=C(Nc1ccccc1)Nc1ncc([N+](=O)[O-])s1", "EC50": "15.8 µM"}
{"compound": "Nc1nonc1-n1nnc(C(=O)N/N=C/c2ccc(Br)cc2)c1CSC1=NCCS1", "EC50": "23.7 µM"}
{"compound": "Cc1cc(C(=O)N/N=C/c2ccc([N+](=O)[O-])s2)n[nH]1", "EC50": "12.8 µM"}
{"compound": "CCn1c(N)[n+](CC(=O)Nc2ccc(SC(F)F)cc2)c2ccccc21", "EC50": "13.3 µM"}
{"compound": "NC1=NC(=Nc2ccc(Br)cc2)c2ccccc21", "EC50": "25.8 µM"}

Req: For O=C(N/N=C/c1ccc([N+](=O)[O-])o1)c1ccc(O)cc1 , what is its reported EC50?
Resp: 12 µM

Req: For Cc1ccc(Nc2nc(Cl)nc(N(C)C#N)n2)cc1 , what is its reported EC50?
Resp: 13.6 µM

Req: For O=C(CN1CCCc2ccccc21)N/N=C/c1c(O)ccc2ccccc12 , what is its reported EC50?
Resp: 3.11 µM

Req: For O=C(N/N=C/c1cn(-c2ccccc2)nc1-c1ccc(F)cc1)c1ccc2c(c1)OCO2 , what is its reported EC50?
Resp: 35 µM

Req: For CN(C)c1ccc(O)c2c1CC1CC3C(N(C)C)C(=O)C(C(N)=O)=C(O)[C@@]3(O)C(=O)C1=C2O (stereo not given in full) , what is its reported EC50?
Resp: 36.6 µM

----------
The entries below are paired with their reported pEC50.
- System: THP-1 viability, CellTiter-Glo luminescence, 72 h
- test method notes: THP-1 cell cytotoxicity, dose response, cytotoxicity control for Salmonella PhoP regulon inhibitors, S. typhimurium screen hits (AID 2253)
Convention used: pEC50 is expressed as -log10 of the molar concentration.

Req: For Cc1ccsc1C=Nc1ccc(O)cc1 , what is its reported pEC50?
Resp: 4.59

Req: For Cc1cc(/C=N/n2c(COc3ccccc3C)nc3ccccc3c2=O)c(O)c([N+](=O)[O-])c1 , what is its reported pEC50?
Resp: 5.60

Req: For O=[N+]([O-])c1cc(/C=N/Nc2nc3ccccc3[nH]2)c(O)cc1O , what is its reported pEC50?
Resp: 5.92

Req: For CCCn1c(NCc2c[nH]c3ccccc23)nc2ccccc21 , what is its reported pEC50?
Resp: 4.64

Req: For CCOC(=S)SCC(=O)Nc1nc(-c2ccccc2)cs1 , what is its reported pEC50?
Resp: 5.31

Req: For O=C(Cc1c[nH]c2ccccc12)N/N=C/c1ccccc1O , what is its reported pEC50?
Resp: 4.79

Req: For O=C1C(SCCO)=C(SCCO)C(=O)c2ccccc21 , what is its reported pEC50?
Resp: 5.09

Req: For Cc1ccc(-c2c[n+](CC(=O)Nc3nc(-c4ccc(F)cc4)cs3)c3n2CCC3)cc1 , what is its reported pEC50?
Resp: 5.02

Req: For Oc1ccc(-c2n[nH]c(=S)n2-c2ccc3c(c2)OCCO3)c(O)c1 , what is its reported pEC50?
Resp: 4.47

Req: For Cc1ccc2[nH]c3c(NCc4ccco4)ncnc3c2c1 , what is its reported pEC50?
Resp: 4.46

Req: For CN1/C(=C\C=C\C2=[N+](C)c3ccc4ccccc4c3C2(C)C)C(C)(C)c2ccccc21 , what is its reported pEC50?
Resp: 6.82

Req: For Cc1ccc(Cn2c(=N)n(CC(=O)c3ccc([N+](=O)[O-])cc3)c3ccccc32)cc1 , what is its reported pEC50?
Resp: 5.09
